# Species on record: Rattus norvegicus
# protocol_text: DrugMatrix - Regimen: Daily Repeat
# Type: toxicity, organism-based, Sprague-Dawley
# Design: regimen Daily Repeat, gender Male, age 6-8 weeks
# setup_conditions: in vivo, iv, 0 mg/kg, 120 h, tissue Blood, dose level Control, time 5 day, vehicle 100 % SALINE
Below is a list of entries, each paired with its recorded MEAN CORPUSCULAR HEMOGLOBIN value.
readout_type: MEAN CORPUSCULAR HEMOGLOBIN

>>> measurement("CC[C@]1(O)C[C@@H]2CN(CCc3c([nH]c4ccccc34)[C@@](C(=O)OC)(c3cc4c(cc3OC)N(C)[C@H]3[C@@](O)(C(=O)OC)[C@H](OC(C)=O)[C@]5(CC)C=CCN6CC[C@]43[C@@H]65)C2)C1")
"24.32 pg"
>>> measurement("COc1cccc2c1C(=O)c1c(O)c3c(c(O)c1C2=O)C[C@@](O)(C(=O)CO)C[C@@H]3O[C@H]1C[C@H](N)[C@H](O)[C@H](C)O1")
"24.6 pg"
>>> measurement("COc1cccc2c1C(=O)c1c(O)c3c(c(O)c1C2=O)C[C@@](O)(C(=O)CO)C[C@@H]3O[C@H]1C[C@H](N)[C@@H](O)[C@H](C)O1 [EPIRUBICIN]")
"24.85 pg"
>>> measurement("CCc1c2c(nc3ccc(OC(=O)N4CCC(N5CCCCC5)CC4)cc13)-c1cc3c(c(=O)n1C2)COC(=O)[C@]3(O)CC")
"24.85 pg"
>>> measurement("CCC1=C[C@@H]2CN(C1)Cc1c([nH]c3ccccc13)[C@@](C(=O)OC)(c1cc3c(cc1OC)N(C)[C@H]1[C@@](O)(C(=O)OC)[C@H](OC(C)=O)[C@]4(CC)C=CCN5CC[C@]31[C@@H]54)C2")
"24.52 pg"
